phosphorylation enrichment reference
- Target Or Test System: EPHB2 (UniProt P29323)
- Sequence (P29323 whole entry, looked up): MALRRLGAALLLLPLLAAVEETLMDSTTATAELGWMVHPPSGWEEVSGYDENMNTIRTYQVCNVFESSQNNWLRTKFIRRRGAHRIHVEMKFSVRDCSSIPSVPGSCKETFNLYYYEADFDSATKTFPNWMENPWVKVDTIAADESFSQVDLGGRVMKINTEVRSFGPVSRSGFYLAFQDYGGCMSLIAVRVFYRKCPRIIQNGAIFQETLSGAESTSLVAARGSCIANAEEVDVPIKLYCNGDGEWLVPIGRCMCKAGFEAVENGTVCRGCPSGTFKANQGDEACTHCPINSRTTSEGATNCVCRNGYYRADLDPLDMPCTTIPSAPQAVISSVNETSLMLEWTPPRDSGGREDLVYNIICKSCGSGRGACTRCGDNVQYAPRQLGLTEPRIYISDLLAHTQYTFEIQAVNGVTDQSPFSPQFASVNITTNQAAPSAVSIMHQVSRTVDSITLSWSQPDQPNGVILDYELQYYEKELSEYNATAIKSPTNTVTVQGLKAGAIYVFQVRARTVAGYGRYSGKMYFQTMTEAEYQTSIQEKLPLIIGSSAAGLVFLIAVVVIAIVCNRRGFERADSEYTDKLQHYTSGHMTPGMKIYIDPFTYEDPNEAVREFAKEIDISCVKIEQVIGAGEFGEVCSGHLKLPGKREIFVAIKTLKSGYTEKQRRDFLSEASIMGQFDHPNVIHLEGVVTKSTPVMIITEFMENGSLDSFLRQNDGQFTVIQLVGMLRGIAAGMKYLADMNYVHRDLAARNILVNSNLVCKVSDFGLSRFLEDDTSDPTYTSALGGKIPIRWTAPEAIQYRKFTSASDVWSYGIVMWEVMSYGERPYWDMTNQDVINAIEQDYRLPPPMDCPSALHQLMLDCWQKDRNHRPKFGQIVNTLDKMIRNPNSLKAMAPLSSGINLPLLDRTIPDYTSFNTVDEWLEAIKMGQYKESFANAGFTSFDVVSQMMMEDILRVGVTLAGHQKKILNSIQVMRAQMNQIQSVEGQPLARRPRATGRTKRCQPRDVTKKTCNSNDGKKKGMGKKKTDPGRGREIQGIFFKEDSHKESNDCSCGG
- Protocol Details: phosphorylation enrichment, bacterial display (enrichment ratio); higher = better substrate or ligand; peptides without Tyr show the background;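 note: 11-residue human phosphosite peptides and single-mutation variants displayed on the E. coli surface, counted by deep sequencing, each peptide's frequency after selection divided by its frequency in the unselected input library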;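 note: frequency after pTyr selection over input frequency; kinase dosed for 20-30% of maximal phosphorylation in three min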
Assay Readout: phosphorylation enrichment

| Macromolecule Sequence | Meas Value |
| --- | --- |
| YYSSEYHYVGG [CTSC_Y345] | 17.6 |
| LRVHSYKSMQP [DRC7_Y516] | 0.515 |
| LGGSPYPSVPV [FGFR1_Y701_G703S] | 0.735 |
| YTFNSYYMHWV [IGHV1-46_Y51_T49N] | 4.46 |
| WIGRKYKKVRF [F8_Y442_R437W] | 0.518 |
| RNEAFYDTFST [EFCAB3_Y372_S370A] | 3.35 |
| IFQASYFRRGD [LTK_Y676_R673Q_YF] | 0.518 |
| KKILCYIQGGS [HYDIN_Y4610_N4606K] | 0.609 |
| DNLNNYVFQGQ [GRIN2A_Y978] | 1.17 |
| IHHIDYFKKTT [FGFR1_Y653_YF] | 0.385 |
| RRIHSYRRHLW [VHL_Y112_G114R] | 0.82 |
| FYVVRYCWLRR [MPZ_Y181] | 0.508 |
| LFQAKYQIRYR [CRLF1_Y272] | 0.517 |
| RSACTYLASHL [PLK3_Y615] | 0.641 |
| CLAKMYYSAVE [CP_Y539_D544E] | 0.901 |
| AQRKLYRNVML [ZNF569_Y33] | 0.287 |
| SLDLSYYPTSS [EMD_Y181] | 0.566 |
| YLGRDYLETLM [DUS3L_Y610] | 0.544 |
| LQFKNYQQLFD [MAN2A1_Y442] | 0.532 |
| GLGGGCGGASG [KRT8_Y54_Y54C] | 0.499 |
| YSQNICIQNRN [PKP2_Y631_Y631C] | 0.503 |
| HLVSEYQQYQD [TUBB3_Y422_D417H] | 1.11 |
| SFPSTYRYERG [INPPL1_Y661_P659S] | 0.397 |
| EGDGVYTLNNK [HP_Y125_E130K] | 0.378 |
| ARDVIYIIIPA [FRKtide_2014] | 0.986 |
| DQNVEYKGTVS [FHL1_Y117_W122S] | 0.616 |
| VNKIYYPDFIV [LIG3_Y768] | 0.516 |
| NFDRVYIFHLR [MYOF_Y1137_YF] | 0.559 |
| LTDLRYKVSGL | 0.479 |
| TAALWYIYLHT [ENG_Y612_S615L] | 0.639 |
| HVKHNYECLVY [XRCC5_Y416_I412V] | 2.04 |
| AQADIYKANFQ [IKBKG_Y308_D311N] | 0.408 |
| LSFSEYASVQV [SIRPA_Y496_P491L] | 8.7 |
| QMVGMYAFSYM [AVPR2_Y124_S126F] | 1.84 |
| LHAAAYRNALA [UQCRC2_Y182] | 0.491 |
| FIGRIYLYLTK [GARS1_Y414] | 0.39 |
| ASMAKYYASEI [ACADSB_Y372] | 0.32 |
| TRSCKYLLLSM [NF1_Y491_Y489C] | 0.621 |
| PADCRYFAFPQ [GAMT_Y222_YF] | 0.959 |
| NPQKSYFIHLY [WAS_Y83_R86H] | 0.586 |
| EFITRYIDSLK [PSMA7_Y110_A112D_YF] | 0.493 |
| DLAAQYTTVGR [SGSH_Y240] | 0.415 |
| GVSFIYTIDGS [DCX_Y105_R102S_YF] | 0.532 |
| KHCEDYVFSFN [DSC1_Y846_C848F_YF] | 0.739 |
| DFDNLYYWDQD [ERBB2_Y1221_A1216D] | 3.3 |
| SRGRQYQELPR [KCNH2_Y1009] | 0.347 |
| FETVKYINNER [ABCB7_Y345_F346I_YF] | 0.403 |
| ITKNPYDPPGR | 0.428 |
| CFTRKYTLPPG [HSPB1_Y142] | 0.459 |
| SEQNNYSRVAN [CWC22_Y797_R794Q] | 0.878 |
| HFMKLYEEKTG [PARP1_Y618] | 0.46 |
| YHIDHYLGKEM [G6PD_Y202_R198H] | 0.505 |
| PYSEPYADYGG [APBA1_Y187] | 1.18 |
| PLDGESFTLQI [TP53_Y327_Y327S] | 0.93 |
| CTTIHYNFMCN [TP53_Y234_Y236F] | 0.485 |
| RHLLRYLSWTV [CLCNKB_Y93_S88R] | 0.591 |
| NPQKSYFICLF [WAS_Y83_R86C_YF] | 0.523 |
| RFMVGYEMLAQ [GALT_Y339_K334R] | 0.811 |

Source of measurements: the supplement of paper PMC10065799
